Target: Mu-type opioid receptor (Homo sapiens)
Sequence (P35372 whole entry): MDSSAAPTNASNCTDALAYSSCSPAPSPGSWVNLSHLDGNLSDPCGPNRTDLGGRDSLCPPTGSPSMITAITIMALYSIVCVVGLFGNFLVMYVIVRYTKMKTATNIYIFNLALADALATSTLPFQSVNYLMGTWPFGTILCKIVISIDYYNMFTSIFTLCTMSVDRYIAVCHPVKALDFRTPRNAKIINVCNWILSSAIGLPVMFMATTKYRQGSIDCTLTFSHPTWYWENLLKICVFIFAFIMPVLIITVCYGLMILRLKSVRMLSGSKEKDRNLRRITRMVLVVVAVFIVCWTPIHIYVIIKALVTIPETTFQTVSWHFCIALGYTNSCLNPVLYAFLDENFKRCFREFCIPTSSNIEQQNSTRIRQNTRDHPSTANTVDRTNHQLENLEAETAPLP
Assay: Displacement of [3H]DAMGO from mu opioid receptor in human SHSY5Y cells
Type: cell-based, SH-SY5Y
*1 amine or outer side, *2 acyl side, *3 side chain or, on linkers, in order; H or OH if unused. Where a SMILES comes first, the peptide text is derived from it. [ ]: non-standard residue; d: D form. The star is where a group is joined. ξ: configuration not given here. NH(β-D-Glc) = OC[C@H]1O[C@@H](N*)[C@H](O)[C@@H](O)[C@@H]1O; X1 = NC(=O)[C@H]1O[C@@H](N*)[C@H](O)[C@@H](O)[C@@H]1O; ξGly(decyl) = CCCCCCCCCCC(N)C(=O)O; Suc = O=C(CCC(=O)[*:2])[*:1]; ξAoc(2) = CCCCCCC(N)C(=O)O
measured_quantity: Ki (nM)
Kindly provide the numeric value in nM only, without the unit symbol.

IN: Report Ki, nothing else, for this molecule: CCCCCCCCCCC(N)C(=O)N[C@@H](Cc1ccc(O)cc1)C(=O)N1CCC[C@H]1C(=O)N[C@@H](Cc1c[nH]c2ccccc12)C(=O)N[C@@H](Cc1ccccc1)C(N)=O (stereo partly specified) (H-[ξGly(decyl)]YPWF-NH2)
OUT: 15.4

IN: For the molecule CCCCCCC(N)C(=O)N[C@@H](Cc1ccc(O)cc1)C(=O)N1CCC[C@H]1C(=O)N[C@@H](Cc1c[nH]c2ccccc12)C(=O)N[C@@H](Cc1ccccc1)C(=O)N[C@@H]1O[C@H](C(N)=O)[C@@H](O)[C@H](O)[C@H]1O (stereo partly specified) (H-[ξAoc(2)]YPWF-X1) , give its reported Ki.
OUT: 148

IN: Identify the reported Ki for the following entry. NC(=O)[C@H](Cc1ccccc1)NC(=O)[C@H](Cc1c[nH]c2ccccc12)NC(=O)[C@@H]1CCCN1C(=O)[C@H](Cc1ccc(O)cc1)NC(=O)CCC(=O)N[C@@H]1O[C@H](CO)[C@@H](O)[C@H](O)[C@H]1O
OUT: 115

IN: Look up and report measured Ki for this entry: Cc1cc(O)cc(C)c1C[C@H](N)C(=O)N1CCC[C@H]1C(=O)N[C@@H](Cc1c[nH]c2ccccc12)C(=O)N[C@@H](Cc1ccccc1)C(N)=O (stereo in doubt; 13)
OUT: 0.059

IN: For the molecule CCCCCCC(NC(=O)[C@H](Cc1ccccc1)NC(=O)[C@H](Cc1c[nH]c2ccccc12)NC(=O)[C@@H]1CCCN1C(=O)[C@@H](N)Cc1ccc(O)cc1)C(N)=O (stereo partly specified) (H-YPWF[ξAoc(2)]-NH2) , give its measured Ki value.
OUT: 121

IN: Consider the molecule CCCCCCC(NC(=O)[C@H](Cc1ccccc1)NC(=O)[C@H](Cc1c[nH]c2ccccc12)NC(=O)[C@@H]1CCCN1C(=O)[C@H](Cc1ccc(O)cc1)NC(=O)CCC(=O)N[C@@H]1O[C@H](CO)[C@@H](O)[C@H](O)[C@H]1O)C(N)=O (stereo partly drawn) ({NH(β-D-Glc)-Suc}-YPWF[ξAoc(2)]-NH2) and give its recorded Ki.
OUT: 266
